test system: PBMC; experiment: Immunostimulatory activity in human PBMC cells assessed as increase in IL-6 production at 2 uM incubated for 18 hrs by flow cytometry analysis; assay type: functional, cell-based
The source made the active and inactive calls. No cut-off for these calls is given here.

molecule	Activity
CC(=O)N[C@H]1C(O)O[C@H](CO)[C@@H](O)[C@@H]1O[C@H](C)C(=O)N[C@@H](C)C(=O)N[C@H](CCC(=O)O)C(N)=O (stereo partly drawn) [MURAMYL DIPEPTIDE]	Active
CCCCCCCCCCCC(=O)Oc1ccc(/C=C/C(=O)NCC(=O)N[C@H](C(=O)N[C@H](CCC(=O)OCC)C(=O)OCC)C(C)C)cc1OC	Active
COc1cc(/C=C/C(=O)NCC(=O)N[C@H](C(=O)N[C@H](CCC(=O)OC2CCCC2)C(=O)OC2CCCC2)C(C)C)ccc1O	Active
